- System: NLRP3
- experiment: IL-1β secretion assay in PMA-differentiated, LPS/nigericin-stimulated THP-1 cells (384-well, ELISA read-out)
- Assay type: cell-based, human
- reported_conditions: Homo sapiens, THP-1, Table 4; IL-1β secretion, LPS/nigericin-stimulated THP-1 cells; read-out: IC50
reported_metric: IC50

O=C(CN1CC2(CC2)c2cc(Br)ccc2C1=O)Nc1nc2ccnn2cc1F	895 nM
O=C(CN1CC2(CC2)c2cc(Br)ccc2C1=O)Nc1ccn2nccc2n1	672 nM
O=C(CN1C[C@@]2(C[C@H]2F)c2cc(Br)ccc2C1=O)Nc1ncc(F)cn1 (mixture of isomers)	1060 nM
CCc1ccc2c(c1)C1(CC1)CN(CC(=O)Nc1ncc(F)cn1)C2=O	784 nM
O=C(CN1CC2(CC2)c2cc(Br)ccc2C1=O)Nc1nc2n(n1)CCC2	1290 nM
O=C(CN1CC2(CC2)c2cc(Br)ccc2C1=O)Nc1ccc(C(F)F)cn1	1010 nM

###

- Test system: NLRP3
- experiment: IL-1β secretion assay in PMA-differentiated, LPS/nigericin-stimulated THP-1 cells (384-well, ELISA read-out)
- Assay type: cell-based, human
- reported_conditions: Homo sapiens, THP-1, Table 4; IL-1β secretion, LPS/nigericin-stimulated THP-1 cells; read-out: IC50
// IC50 lookup, one value per entry
reported_metric: IC50

Cn1ncc2cnc(NC(=O)CN3CC4(CC4)c4cc(Br)ccc4C3=O)nc21 [Example 408]	827 nM
Cc1cnc(NC(=O)CN2CC3(CC3)c3cc(Br)ccc3C2=O)nc1C [Example 217]	862 nM
O=C(CN1CC2(CC2)c2cc(Br)ccc2C1=O)Nc1nc2ccc(C(F)(F)F)cc2o1 [Example 361]	849 nM

###

- System: NLRP3
- experiment: IL-1β secretion assay in PMA-differentiated, LPS/nigericin-stimulated THP-1 cells (384-well, ELISA read-out)
- Format: cell-based, human
- reported_conditions: Homo sapiens, THP-1, Table 4; IL-1β secretion, LPS/nigericin-stimulated THP-1 cells; read-out: IC50
- Procedure: Compounds as provided herein were tested in the following assay. Cell culture medium employed contained RPMI 1640 medium (89%), FBS (10%), Pen/Strep (1%), and 2-mercaptoethanol (0.05 mM). Freezing medium was made up of 90% FBS and 10% DMSO. […] All media was carefully aspirated from each culture flask. […] These supernatant aliquots were analyzed using an IL-Iβ detection kit as described below. If needed, the test samples could be snap frozen and stored at −80° C. until analyzed. […]
pIC50: −log10 of the molar value.
# reported pIC50; entries follow
reported_metric: pIC50

CC1N(CC(=O)Nc2ncccn2)C(=O)c2ccc(C(F)(F)F)cc2C12CC2 (stereo not drawn)	4.79
CC(C)(O)CNC(=O)CN1CC2(CC2)c2cc(Br)ccc2C1=O	4.78
O=C(CN1CC2(CC2)c2cc(Br)ccc2C1=O)Nc1ncc(F)cc1F	6.23

###

- System: NLRP3
- experiment: IL-1β secretion assay in PMA-differentiated, LPS/nigericin-stimulated THP-1 cells (384-well, ELISA read-out)
- Type: cell-based, human
- reported_conditions: Homo sapiens, THP-1, Table 4; IL-1β secretion, LPS/nigericin-stimulated THP-1 cells; read-out: IC50
Threshold 9 µM: IC50 strictly smaller gives Yes, otherwise No.

O=C(CN1CC2(CC2)c2cc(Br)ccc2C1=O)Nc1ccc2ccncc2c1	Yes
O=C(CN1CC2(CC2)c2cc(Br)ccc2C1=O)Nc1ncc(C(F)(F)F)cn1	Yes
Cc1nc(NC(=O)CN2CC3(CC3)c3cc(Br)ccc3C2=O)nn1-c1ccccc1	Yes
O=C(CN1CC2(CC2)c2cc(Br)ccc2C1=O)NC1CC(OC(F)F)C1 (centres unmarked)	Yes
Cc1noc(NC(=O)CN2CC3(CC3)c3cc(Br)ccc3C2=O)c1C	No
Cn1nccc1CNC(=O)CN1CC2(CC2)c2cc(Br)ccc2C1=O	No
O=C(CN1CC2(CC2)c2cc(Br)ccc2C1=O)NC12CCC(CC1)CC2	Yes
O=C(CN1CC2(CC2)c2cc(Br)ccc2C1=O)NC1CC2(COC2)C1	Yes
